Reference source for all entries: patent US4737510A

# Tested on: Monkey Kidney Cells (CV-1)
# assay.name: Cytotoxicity to monkey kidney cells (CV-1) determined by Dr. R. G. Hughes, Jr.
# stated.conditions: 50 μg/disk; 8 or less essentially indicates noncytotoxicity
endpoint: cytotoxicity, zone diameter (mm)
Write it as a number; the unit mm goes unstated.

Some solved cases for reference:
molecule: Nc1ncc(C2c3nc(N)[nH]c3CC(CNC(=O)c3cc(Br)c[nH]3)C2CNC(=O)c2cc(Br)c[nH]2)[nH]1 (centres unmarked) [Compound 4a, Ageliferin Acetate]
measurement.target: Monkey Kidney Cells (CV-1)
cytotoxicity, zone diameter, mm: 5
//
molecule: NC1=NC(=O)C(C2C(CNC(=O)c3ccc[nH]3)C(CNC(=O)c3cc(Br)c[nH]3)C2c2cnc(N)[nH]2)N1 (centres unmarked) [Compound 7a, Debromooxysceptrin Acetate]
measurement.target: Monkey Kidney Cells (CV-1)
cytotoxicity, zone diameter, mm: 5

*Q* # get_value(readout='cytotoxicity, zone diameter', item= Nc1ncc([C@@H]2[C@@H](CNC(=O)c3ccc[nH]3)[C@H](CNC(=O)c3cc(Br)c[nH]3)[C@H]2c2cnc(N)[nH]2)[nH]1 (relative stereo) [Compound 1a, Debromosceptrin Acetate] )
*A* 5

*Q* # get_value(readout='cytotoxicity, zone diameter', item= Nc1ncc(C2c3nc(N)[nH]c3CC(CNC(=O)c3cc(Br)c(Br)[nH]3)C2CNC(=O)c2cc(Br)c[nH]2)[nH]1 (centres unmarked) [Compound 5a, Bromoageliferin Acetate] )
*A* 5

*Q* # get_value(readout='cytotoxicity, zone diameter', item= NC1=NC(=O)C(C2C(CNC(=O)c3cc(Br)c[nH]3)C(CNC(=O)c3cc(Br)c[nH]3)C2c2cnc(N)[nH]2)N1 (centres unmarked) [Compound 8a, Oxysceptrin Acetate] )
*A* 5

*Q* # get_value(readout='cytotoxicity, zone diameter', item= Nc1ncc([C@@H]2[C@@H](CNC(=O)c3cc(Br)c[nH]3)[C@H](CNC(=O)c3cc(Br)c[nH]3)[C@H]2c2cnc(N)[nH]2)[nH]1 (relative stereo) [Compound 2a, Sceptrin Acetate] )
*A* 5

*Q* # get_value(readout='cytotoxicity, zone diameter', item= Nc1ncc([C@@H]2[C@@H](CNC(=O)c3cc(Br)c(Br)[nH]3)[C@H](CNC(=O)c3cc(Br)c(Br)[nH]3)[C@H]2c2cnc(N)[nH]2)[nH]1 (relative stereo) [Compound 3a, Dibromosceptrin Acetate] )
*A* 5

*Q* # get_value(readout='cytotoxicity, zone diameter', item= Nc1ncc(C2c3nc(N)[nH]c3CC(CNC(=O)c3cc(Br)c(Br)[nH]3)C2CNC(=O)c2cc(Br)c(Br)[nH]2)[nH]1 (centres unmarked) [Compound 6a, Dibromoageliferin Acetate] )
*A* 8
